Target: HDAC10 (Homo sapiens)
Sequence (Q969S8 1-669): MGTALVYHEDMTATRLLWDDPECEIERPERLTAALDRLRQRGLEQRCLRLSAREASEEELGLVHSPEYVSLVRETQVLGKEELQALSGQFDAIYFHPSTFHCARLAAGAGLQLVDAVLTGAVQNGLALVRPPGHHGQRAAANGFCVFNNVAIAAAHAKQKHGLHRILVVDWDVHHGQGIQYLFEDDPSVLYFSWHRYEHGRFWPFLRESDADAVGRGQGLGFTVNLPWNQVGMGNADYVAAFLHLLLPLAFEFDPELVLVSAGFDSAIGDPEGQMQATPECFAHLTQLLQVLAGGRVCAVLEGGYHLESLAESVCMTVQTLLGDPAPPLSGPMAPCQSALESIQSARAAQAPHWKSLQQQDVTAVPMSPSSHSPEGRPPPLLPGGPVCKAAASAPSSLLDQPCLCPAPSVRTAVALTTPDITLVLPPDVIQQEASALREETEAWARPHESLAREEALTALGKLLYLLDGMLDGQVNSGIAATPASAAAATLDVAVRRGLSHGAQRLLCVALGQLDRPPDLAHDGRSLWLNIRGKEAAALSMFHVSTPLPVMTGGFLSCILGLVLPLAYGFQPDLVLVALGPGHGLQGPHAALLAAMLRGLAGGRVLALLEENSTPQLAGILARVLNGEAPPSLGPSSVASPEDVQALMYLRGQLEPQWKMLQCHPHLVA
Test: In vitro HDAC inhibition assay, HDAC10
Settings: NI = No inhibition at a concentration of 50 pM (footnote b); read-out: HDAC isoform IC50, HDAC10
pIC50: −log10 of the molar value.
assay_endpoint: pIC50

Worked examples, 5 molecules total:
>  <chemical_structure>
O=C(Nc1cccc(-c2cc(C(=O)NCCc3cc(C(=O)NO)no3)no2)c1)c1ccccc1

>  <assay_endpoint>
pIC50

>  <observed_value>
5.33

$$$$
>  <chemical_structure>
CCOC(=O)Nc1ccc(-c2cc(C(=O)NCCc3cc(C(=O)NO)no3)no2)cc1

>  <assay_endpoint>
pIC50

>  <observed_value>
4.90

$$$$
>  <chemical_structure>
CC(C)(C)OC(=O)Nc1ccc(-c2csc(NC(=O)CCCc3cc(C(=O)NO)no3)n2)cc1

>  <assay_endpoint>
pIC50

>  <observed_value>
7.28

$$$$
>  <chemical_structure>
CC(C)(C)OC(=O)Nc1cccc(-c2cc(C(=O)NCc3ccc(C(=O)NO)cc3)no2)c1

>  <assay_endpoint>
pIC50

>  <observed_value>
5.56

$$$$
>  <chemical_structure>
CCOC(=O)Nc1ccc(-c2csc(NC(=O)CCCc3cc(C(=O)NO)no3)n2)cc1

>  <assay_endpoint>
pIC50

>  <observed_value>
6.49

$$$$

I = CC(C)(C)C(=O)Nc1cccc(-c2cc(C(=O)NCCc3cc(C(=O)NO)no3)no2)c1
II = Nc1cccc(-c2cc(C(=O)NCCc3cc(C(=O)NO)no3)no2)c1
III = CCOC(=O)Nc1cccc(-c2csc(NC(=O)CCc3cc(C(=O)NO)no3)n2)c1
Problem: Please order the records by their reported pIC50, lowest number first. Order the labels as requested and give them as your answer.
Solution: I, II, III
(I: 4.40, II: 5.28, III: 6.57)

====

target: HDAC3/NcoR2 complex (Homo sapiens, UniProt O15379); test: In vitro HDAC inhibition assay, HDAC3; conditions: NI = No inhibition at a concentration of 50 pM (footnote b); read-out: HDAC isoform IC50, HDAC3
Sequence (O15379 whole entry, canonical isoform): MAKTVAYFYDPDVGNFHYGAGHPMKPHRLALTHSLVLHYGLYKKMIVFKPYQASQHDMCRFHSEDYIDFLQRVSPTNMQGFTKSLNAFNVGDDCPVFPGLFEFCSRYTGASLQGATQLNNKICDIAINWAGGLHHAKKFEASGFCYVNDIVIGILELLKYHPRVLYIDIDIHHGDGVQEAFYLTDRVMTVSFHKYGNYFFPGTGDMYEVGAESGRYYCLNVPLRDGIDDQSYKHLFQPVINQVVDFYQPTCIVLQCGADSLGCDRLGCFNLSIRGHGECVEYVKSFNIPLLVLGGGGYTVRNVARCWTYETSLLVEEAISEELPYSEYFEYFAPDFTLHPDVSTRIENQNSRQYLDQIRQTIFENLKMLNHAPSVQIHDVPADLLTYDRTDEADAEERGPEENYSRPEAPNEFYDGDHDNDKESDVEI
Sequence (Q9Y618 395-489 partner limits assumed): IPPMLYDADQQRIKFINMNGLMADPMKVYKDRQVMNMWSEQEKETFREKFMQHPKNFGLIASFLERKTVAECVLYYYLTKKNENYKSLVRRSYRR
assay_endpoint: IC50 (µM)

Some entries whose results are on file:
>  <compound>
CCOC(=O)Nc1cccc(-c2csc(NC(=O)CCc3cc(C(=O)NO)no3)n2)c1 [Compound 5]

>  <experimental_target>
HDAC3/NcoR2 complex (Homo sapiens, UniProt O15379)

>  <IC50, µM>
0.107

$$$$
>  <compound>
COc1ccc(C(=O)NC(Cc2cc(C(=O)NO)no2)Cc2c[nH]c3ccccc23)cc1OC (centres unmarked) [Compound 21]

>  <experimental_target>
HDAC3/NcoR2 complex (Homo sapiens, UniProt O15379)

>  <IC50, µM>
54.1

$$$$
>  <compound>
O=C(CCc1cc(C(=O)NO)no1)Nc1nc(-c2ccccc2)cs1 [Compound 1]

>  <experimental_target>
HDAC3/NcoR2 complex (Homo sapiens, UniProt O15379)

>  <IC50, µM>
0.32

$$$$
>  <compound>
O=C(NO)c1cc(CC(Cc2c[nH]c3ccccc23)NC(=O)C(F)(F)F)on1 (centres unmarked) [Compound 20]

>  <experimental_target>
HDAC3/NcoR2 complex (Homo sapiens, UniProt O15379)

>  <IC50, µM>
41.6

$$$$
>  <compound>
CC(C)(C)OC(=O)Nc1ccc(-c2csc(NC(=O)CCCc3cc(C(=O)NO)no3)n2)cc1 [Compound 3]

>  <experimental_target>
HDAC3/NcoR2 complex (Homo sapiens, UniProt O15379)

>  <IC50, µM>
0.448

$$$$
>  <compound>
O=C(NO)c1ccc(CNC(=O)c2cc(Cn3c4ccccc4c4ccccc43)on2)cc1 [Compound 18]

>  <experimental_target>
HDAC3/NcoR2 complex (Homo sapiens, UniProt O15379)

>  <IC50, µM>
0.479

$$$$

A = CC(C)(C)OC(=O)Nc1cccc(-c2cc(C(=O)NCCc3cc(C(=O)NO)no3)no2)c1 [Compound 7]
B = Nc1cccc(-c2cc(C(=O)NCCc3cc(C(=O)NO)no3)no2)c1 [Compound 9]
Problem: Which entry has a larger number for IC50, A or B ? Output the label that corresponds to your choice.
Solution: A

====

target: HDAC9 (Homo sapiens, UniProt Q9UKV0); assay: HDAC isoform inhibition, HDAC9
Sequence (Q9UKV0 whole entry, canonical isoform): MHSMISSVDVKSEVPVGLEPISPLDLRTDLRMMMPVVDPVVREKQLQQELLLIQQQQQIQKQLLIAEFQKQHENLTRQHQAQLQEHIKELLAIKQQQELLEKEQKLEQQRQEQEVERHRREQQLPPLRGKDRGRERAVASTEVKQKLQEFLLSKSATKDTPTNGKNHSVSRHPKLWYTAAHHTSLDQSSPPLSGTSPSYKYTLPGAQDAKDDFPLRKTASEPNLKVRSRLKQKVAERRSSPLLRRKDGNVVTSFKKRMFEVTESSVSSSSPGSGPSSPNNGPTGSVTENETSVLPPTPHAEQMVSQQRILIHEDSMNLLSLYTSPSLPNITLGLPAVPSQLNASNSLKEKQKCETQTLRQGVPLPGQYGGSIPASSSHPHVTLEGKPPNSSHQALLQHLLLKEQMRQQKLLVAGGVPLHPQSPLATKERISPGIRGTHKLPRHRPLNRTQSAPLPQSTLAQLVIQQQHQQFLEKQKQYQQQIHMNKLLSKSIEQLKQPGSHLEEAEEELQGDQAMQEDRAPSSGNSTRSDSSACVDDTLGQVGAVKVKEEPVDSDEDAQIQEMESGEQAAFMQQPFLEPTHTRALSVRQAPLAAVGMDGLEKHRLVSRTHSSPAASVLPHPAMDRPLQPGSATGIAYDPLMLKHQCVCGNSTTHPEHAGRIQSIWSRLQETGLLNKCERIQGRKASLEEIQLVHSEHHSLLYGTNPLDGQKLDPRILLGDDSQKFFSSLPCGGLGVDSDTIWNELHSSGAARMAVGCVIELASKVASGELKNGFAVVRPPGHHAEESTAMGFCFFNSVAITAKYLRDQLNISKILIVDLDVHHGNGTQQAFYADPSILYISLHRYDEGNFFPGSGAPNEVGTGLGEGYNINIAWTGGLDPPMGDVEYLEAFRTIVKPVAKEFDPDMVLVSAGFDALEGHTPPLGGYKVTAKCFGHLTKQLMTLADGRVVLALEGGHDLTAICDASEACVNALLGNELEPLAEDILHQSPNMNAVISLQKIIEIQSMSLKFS
assay_endpoint: IC50 (µM)
Your answer should be a plain number; it is taken to be in µM.

# IC50 of CC(C)(C)OC(=O)Nc1ccc(-c2cc(C(=O)NCCc3cc(C(=O)NO)no3)no2)cc1 = 12.8

====

target: HDAC8 (Homo sapiens, UniProt Q9BY41); test: HDAC isoform inhibition, HDAC8
Sequence (Q9BY41 whole entry, canonical isoform): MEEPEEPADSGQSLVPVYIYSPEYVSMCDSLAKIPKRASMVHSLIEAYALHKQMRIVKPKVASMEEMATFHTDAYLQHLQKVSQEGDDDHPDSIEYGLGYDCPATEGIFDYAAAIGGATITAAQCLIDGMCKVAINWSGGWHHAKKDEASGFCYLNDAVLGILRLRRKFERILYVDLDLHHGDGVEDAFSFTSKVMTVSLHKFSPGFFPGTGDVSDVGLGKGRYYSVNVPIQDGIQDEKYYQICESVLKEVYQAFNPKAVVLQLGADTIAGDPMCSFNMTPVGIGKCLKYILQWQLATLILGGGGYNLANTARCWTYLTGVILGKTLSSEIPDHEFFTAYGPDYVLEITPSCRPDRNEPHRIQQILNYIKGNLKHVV
assay_endpoint: IC50 (nM)
Note: unit nM is implicit; provide only the numeric part.

For CC(C)(C)OC(=O)Nc1ccc(-c2cc(C(=O)NCCc3cc(C(=O)NO)no3)no2)cc1 the molecule record lists IC50 as 810

====

target: HDAC10 (Homo sapiens); assay: In vitro HDAC inhibition assay, HDAC10; settings: NI = No inhibition at a concentration of 50 pM (footnote b); read-out: HDAC isoform IC50, HDAC10
pIC50: −log10 of the molar value.
assay_endpoint: pIC50

>  <chemical_structure>
O=C(CCCc1cc(C(=O)NO)no1)Nc1nc(-c2ccccc2)cs1

>  <pIC50>
6.07

$$$$
>  <chemical_structure>
O=C(NO)c1ccc(CNC(=O)c2cc(-c3ccc(NC(=O)C4CCCCC4)cc3)on2)cc1

>  <pIC50>
6.69

$$$$

1 = CC(C)(C)OC(=O)Nc1ccc(-c2cc(C(=O)NCc3ccc(C(=O)NO)cc3)no2)cc1
2 = O=C(CCc1cc(C(=O)NO)no1)Nc1nc(-c2ccccc2)cs1
3 = O=C(NO)c1ccc(CNC(=O)c2cc(-c3cccc(NC(=O)C4CCCCC4)c3)on2)cc1
4 = O=C(NO)c1ccc(CNC(=O)c2cc(Cn3c4ccccc4c4ccccc43)on2)cc1
Problem: Sort ascending by pIC50. Could you list the labels in the order requested?
Solution: 4, 1, 2, 3

====

target: Human HDAC6 (Homo sapiens, UniProt Q9UBN7); construct: Full length with N-terminal GST tag, MW=159 kDa; GST (N); assay: In vitro HDAC inhibition assay, HDAC6; conditions: read-out: HDAC isoform IC50, HDAC6
Sequence (Q9UBN7 whole entry, canonical isoform): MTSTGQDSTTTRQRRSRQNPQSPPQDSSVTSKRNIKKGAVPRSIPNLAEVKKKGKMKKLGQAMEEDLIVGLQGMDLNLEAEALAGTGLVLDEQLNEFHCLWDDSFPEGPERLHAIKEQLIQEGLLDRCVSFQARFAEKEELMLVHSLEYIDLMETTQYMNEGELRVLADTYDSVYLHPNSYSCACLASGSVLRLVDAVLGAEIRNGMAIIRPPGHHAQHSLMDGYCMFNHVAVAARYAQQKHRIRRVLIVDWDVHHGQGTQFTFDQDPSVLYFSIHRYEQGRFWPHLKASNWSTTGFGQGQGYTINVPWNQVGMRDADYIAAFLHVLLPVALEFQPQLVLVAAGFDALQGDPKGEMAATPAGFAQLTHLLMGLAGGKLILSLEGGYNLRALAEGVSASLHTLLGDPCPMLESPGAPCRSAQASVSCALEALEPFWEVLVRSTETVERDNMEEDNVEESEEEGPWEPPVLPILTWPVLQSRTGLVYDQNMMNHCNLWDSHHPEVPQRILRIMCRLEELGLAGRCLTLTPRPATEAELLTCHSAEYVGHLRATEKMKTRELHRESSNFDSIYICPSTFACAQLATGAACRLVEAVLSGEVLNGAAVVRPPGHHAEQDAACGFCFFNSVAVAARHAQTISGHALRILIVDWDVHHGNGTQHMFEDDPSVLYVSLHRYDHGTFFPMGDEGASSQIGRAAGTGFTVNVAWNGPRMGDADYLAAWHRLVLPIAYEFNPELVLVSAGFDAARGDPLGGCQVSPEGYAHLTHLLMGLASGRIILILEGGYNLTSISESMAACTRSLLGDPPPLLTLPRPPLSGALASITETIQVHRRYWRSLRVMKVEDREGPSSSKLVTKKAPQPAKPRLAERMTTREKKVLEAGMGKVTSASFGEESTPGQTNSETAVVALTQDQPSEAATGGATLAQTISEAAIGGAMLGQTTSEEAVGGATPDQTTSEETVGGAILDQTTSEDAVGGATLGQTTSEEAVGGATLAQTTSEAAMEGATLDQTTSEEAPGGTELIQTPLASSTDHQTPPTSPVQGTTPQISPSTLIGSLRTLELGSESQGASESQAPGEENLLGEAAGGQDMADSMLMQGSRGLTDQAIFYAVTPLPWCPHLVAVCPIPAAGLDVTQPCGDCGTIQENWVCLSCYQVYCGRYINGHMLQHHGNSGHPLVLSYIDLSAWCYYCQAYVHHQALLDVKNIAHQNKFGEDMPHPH
pIC50: −log10 of the molar value.
assay_endpoint: pIC50

Worked examples follow.
>  <compound>
O=C(Nc1cccc(-c2cc(C(=O)NCCc3cc(C(=O)NO)no3)no2)c1)c1ccccc1

>  <experimental_target>
Human HDAC6 (Homo sapiens, UniProt Q9UBN7)

>  <observed_value>
8.36

$$$$
>  <compound>
O=C(NO)c1cc(CC(Cc2c[nH]c3ccccc23)NC(=O)C(F)(F)F)on1 (centres unmarked)

>  <experimental_target>
Human HDAC6 (Homo sapiens, UniProt Q9UBN7)

>  <observed_value>
5.52

$$$$

A = CC(C)(C)C(=O)Nc1cccc(-c2cc(C(=O)NCCc3cc(C(=O)NO)no3)no2)c1
B = O=C(NO)c1ccc(CNC(=O)c2cc(-c3cccc(NC(=O)C4CCCCC4)c3)on2)cc1
Problem: Please choose the item with the lower pIC50 value from this pair: A and B Select an item and report its label.
Solution: A
(A: 7.67, B: 8.59)

a = CC(C)(C)OC(=O)Nc1ccc(-c2cc(C(=O)NCCc3cc(C(=O)NO)no3)no2)cc1
b = CCOC(=O)Nc1ccc(-c2cc(C(=O)NCCc3cc(C(=O)NO)no3)no2)cc1
c = Nc1cccc(-c2cc(C(=O)NCCc3cc(C(=O)NO)no3)no2)c1
Problem: Write the entries in order, lowest recorded pIC50 first. Dear reader, please state the labels in the requested order.
Solution: b, c, a
